B1: ANKRD40 (parent)
chain: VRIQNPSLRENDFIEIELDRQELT

Variants of: B1
Assay: protein stability index of a GFP-peptide fusion (GPS, HEK-293T) (PSI 1-6); higher = more stable;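 further: lentivirally expressed fusions sorted by FACS into six bins by GFP to DsRed ratio, PSI derived from sequencing read proportions per bin multiplied by bin number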
Conditions: c terminus: a fixed tail appended
readout kind: protein stability index
When you answer, write just the number.

The variant listed as VRIQNPSLRENDFIEIELDYQELT [R20Y] shows protein stability index equal to 1.84

The variant listed as VYIQNPSLRENDFIEIELDRQELT [R2Y] shows protein stability index equal to 1.73

The variant listed as VRWQNPSLRENDFIEIELDRQELT [I3W] shows protein stability index equal to 2.4

The variant listed as VRIQNPSLRENFFIEIELDRQELT [D12F] shows protein stability index equal to 2.14

The variant listed as VRIQNPSLREIDFIEIELDRQELT [N11I] shows protein stability index equal to 1.94

The variant listed as VRIQNPSLRENDFIEIELMRQELT [D19M] shows protein stability index equal to 1.65

The variant listed as VRIQNPSLRENDFIEIEADRQELT [L18A] shows protein stability index equal to 4.2

The variant listed as VRIQNPSLRENDPIEIELDRQELT [F13P] shows protein stability index equal to 4.53

The variant listed as VRIQNPSLHENDFIEIELDRQELT [R9H] shows protein stability index equal to 1.81

The variant listed as VRIQNPALRENDFIEIELDRQELT [S7A] shows protein stability index equal to 2.76

The variant listed as VRIQNPCLRENDFIEIELDRQELT [S7C] shows protein stability index equal to 2.33

The variant listed as VRIGNPSLRENDFIEIELDRQELT [Q4G] shows protein stability index equal to 2.36

The variant listed as VRIQNPSVRENDFIEIELDRQELT [L8V] shows protein stability index equal to 2.41

The variant listed as VRIQNPSLRENDFIEIELDRQHLT [E22H] shows protein stability index equal to 2.57

The variant listed as VRIQNPSLRENDFIEIELYRQELT [D19Y] shows protein stability index equal to 1.83

The variant listed as VRIQNPSLRENDFIEIELDRQEGT [L23G] shows protein stability index equal to 3.99

The variant listed as VRIQNPSLNENDFIEIELDRQELT [R9N] shows protein stability index equal to 1.93

The variant listed as VRIQNWSLRENDFIEIELDRQELT [P6W] shows protein stability index equal to 1.77

The variant listed as VRIQNPSLRYNDFIEIELDRQELT [E10Y] shows protein stability index equal to 1.51

The variant listed as VRIQNPSLRENDFIEIELDRQELQ [T24Q] shows protein stability index equal to 3.03

The variant listed as VRIQNPSLREGDFIEIELDRQELT [N11G] shows protein stability index equal to 2.32

The variant listed as VRIQNPSLRENDFINIELDRQELT [E15N] shows protein stability index equal to 3.29

The variant listed as VRIQDPSLRENDFIEIELDRQELT [N5D] shows protein stability index equal to 2.48

The variant listed as VRIQNHSLRENDFIEIELDRQELT [P6H] shows protein stability index equal to 2.65

The variant listed as VRIQNPSLRENDFIWIELDRQELT [E15W] shows protein stability index equal to 1.97

The variant listed as VRIQNPSLRENDFIEIELDRPELT [Q21P] shows protein stability index equal to 2.46

The variant listed as VRIQNPSLRENDFIEIELDNQELT [R20N] shows protein stability index equal to 2.77

The variant listed as VRIQNPSLRENDDIEIELDRQELT [F13D] shows protein stability index equal to 4.61

The variant listed as VRIQNPSLRENDFIRIELDRQELT [E15R] shows protein stability index equal to 2.13

The variant listed as VRIQNPSLRENDFIEIELTRQELT [D19T] shows protein stability index equal to 1.94

The variant listed as VRIQNPSLRENDFICIELDRQELT [E15C] shows protein stability index equal to 1.87

The variant listed as VRIQNPSLRENDFITIELDRQELT [E15T] shows protein stability index equal to 2.27

The variant listed as VPIQNPSLRENDFIEIELDRQELT [R2P] shows protein stability index equal to 4.93

The variant listed as VRIQNPSLRENDFIPIELDRQELT [E15P] shows protein stability index equal to 3.49

The variant listed as VRIQNPSLRENDFIEIELDRQELR [T24R] shows protein stability index equal to 2.79

The variant listed as VRIQNPSFRENDFIEIELDRQELT [L8F] shows protein stability index equal to 2.27

The variant listed as VRIQNPSLRENDFIEIVLDRQELT [E17V] shows protein stability index equal to 1.35

The variant listed as VRIQNPSLRENDFIEIGLDRQELT [E17G] shows protein stability index equal to 3.22

The variant listed as VRIQNPSLREADFIEIELDRQELT [N11A] shows protein stability index equal to 2.18

The variant listed as VRIQNPSLRENDFIEIELDDQELT [R20D] shows protein stability index equal to 2.75

The variant listed as VRIQNPSKRENDFIEIELDRQELT [L8K] shows protein stability index equal to 2.96

The variant listed as PRIQNPSLRENDFIEIELDRQELT [V1P] shows protein stability index equal to 4.53

The variant listed as VTIQNPSLRENDFIEIELDRQELT [R2T] shows protein stability index equal to 3.5

The variant listed as VGIQNPSLRENDFIEIELDRQELT [R2G] shows protein stability index equal to 4.28

The variant listed as VRIQIPSLRENDFIEIELDRQELT [N5I] shows protein stability index equal to 2.43

The variant listed as VRIQNPSLRENDFIEIELDRQELK [T24K] shows protein stability index equal to 2.3

These entries and their values trace back to the supplement of paper PMC10567573.
